system: Human B Lymphocyte cell line, SU-DHL-8; assay: Relative cell viability CCK-8, SU-DHL-8; assay type: cell-based; conditions: 50 μM; 48 hours; untreated (DMSO) = 100%
# key: entry, value: Relative cell viability (%), SU-DHL-8
Form entry: value (%) — number only.

**Query** Lookup: Relative cell viability (%), SU-DHL-8 / Human B Lymphocyte cell line, SU-DHL-8 / Nc1ncccc1C(=O)NCCCCCCCCCCCCN1CC=CC1
**Result** 34.27

**Query** Also CC1(C)CCN(CCCCCCCCCCCCNC(=O)c2cccnc2N)C1 , if possible.
**Result** 1.67

**Query** Similarly, Cl.Nc1ncccc1C(=O)NCCCCCCCCCCCCF ?
**Result** 0.77

---

test system: Human B Lymphocyte cell line, SU-DHL-8; experiment: Relative cell viability CCK-8, SU-DHL-8; assay type: cell-based; conditions: Homo sapiens, SU-DHL-8, 48 h, read-out: Relative cell viability (%), SU-DHL-8, 30 μM; 48 hours; untreated (DMSO) = 100%
Note to self: viability at 30 µM under 5% means Y, ties and anything higher get N.

Here are 6 molecules together with their reported answers.
# Molecule, Group Label
records = [
    ("Nc1ncccc1C(=O)NCCCCCCCCCCCCN1CCc2ccccc2C1", "N"),
    ("O=C(NCCCCCCCCCCCCF)c1ncccc1O", "N"),
    ("Nc1ncccc1C(=O)NCCCCCCCCCCCF", "Y"),
    ("CN(C)C1CCN(CCCCCCCCCCCCNC(=O)c2cccnc2N)C1 (stereo not shown)", "N"),
    ("Nc1ncccc1C(=O)NCCCCCCCCCCCCN1CCOCC1", "N"),
    ("CC1C2CCCN2CCN1CCCCCCCCCCCCNC(=O)c1cccnc1N (stereo not shown)", "Y"),
]

**Query** viability at 30 µM strictly < 5% for this molecule? Nc1ccncc1C(=O)NCCCCCCCCCCCCF
**Result** Y

**Query** Another: CN(C)CCN1CCN(CCCCCCCCCCCCNC(=O)c2cccnc2N)CC1
**Result** Y

**Query** Ok, now CN1CCN(C(=O)OC(C)(C)C)CC1CCCCCCCCNC(=O)c1cccnc1N (stereo not shown)
**Result** Y

---

test system: Human Bladder cancer cell, T24; test: Relative cell viability CCK-8, T24; assay type: cell-based; details: Homo sapiens, 48 h, 1 μM
The following compounds are shown together with reported viability at 1 µM values.
# unit: % | format: bare number

# Compound, Observed Result
records = [
    ("CN(C)C1CCCCN(CCCCCCCCCCCCNC(=O)c2cccnc2N)C1 (stereo not shown) [Compound 45]", 9.91),
    ("Nc1nc(NC(=O)CCCCCCCCCCCCN2CCN(CCO)CC2)nc2nc[nH]c12 [Compound 15]", 7.92),
    ("Nc1ncccc1C(=O)NCCCCCCCCCCCCN1CCSC1 [Compound 31]", 7.59),
]

**Query** Entry under review: O=C(NCCCCCCCCCCCCN1CCN2CCCC2C1)c1cccnc1 (stereo not shown) [Compound 23] . Reported viability at 1 µM?
**Result** 10

---

tested on: Human B Lymphocyte cell line, SU-DHL-8; assay: Relative cell viability CCK-8, SU-DHL-8; assay type: cell-based; details: 10 μM; 48 hours; untreated (DMSO) = 100%
# thresholds on Relative cell viability (%), SU-DHL-8 define classes: bucket A = under 3%, bucket B = from 3% up to 8%, bucket C = 8% and over

A selection of reference data follows.
# Molecule, Group Label
records = [
    ("C[C@H]1CNCCN1CCCCCCCCCCCCNC(=O)c1cccnc1N.Cl", "bucket B"),
    ("CC1(C)CCN(CCCCCCCCCCCCNC(=O)c2cccnc2N)C1", "bucket A"),
    ("Nc1ncccc1C(=O)NCCCCCCCCCCCCN1CCC(F)C1 (stereo not drawn)", "bucket A"),
    ("Nc1ncccc1C(=O)NCCCCCCCCCCCCN1CCC(Oc2ccncc2)CC1", "bucket B"),
    ("Nc1ncccc1C(=O)NCCCCCCCCCCCCN1CCS(=O)(=O)CC1", "bucket A"),
]

**Query** // bin(item) where item = Nc1ncccc1C(=O)NCCCCCCCCCCCCN1CC=CC1
**Result** bucket C

**Query** Proceed to CC1CCCN(CCCCCCCCCCCCNC(=O)c2cccnc2N)CC1 (stereo not drawn)
**Result** bucket C

**Query** // next record CN1CCN(CCCCCCCCCCCCNC(=O)c2cccnc2F)CC1
**Result** bucket C

---

test system: Human Colorectal Carcinoma cell line, HCT-116; assay: Relative cell viability CCK-8, HCT-116; format: cell-based; details: Homo sapiens, HCT-116; 10 μM; 48 hours
Entries annotated with measured viability at 10 µM
Report as: number unit

# Compound, Observed Result
rows = [
    ("Nc1ncccc1C(=O)NCCCCCCCCCCCCN1CC(F)C1", "13.3%"),
]

**Query** What measured viability at 10 µM is associated with Nc1ncccc1C(=O)NCCCCCCCCCCCCN1CCNCC1 on Human Colorectal Carcinoma cell line, HCT-116?
**Result** 12.3%

**Query** Check Nc1ncccc1C(=O)NCCCCCCCCCCCCN1CCSC1 too.
**Result** 13.2%

**Query** Quick one: O=C(NCCCCCCCCCCCCN1CCN2CCCC2C1)c1cccnc1 (centres unmarked)
**Result** 14.6%

**Query** Okay, and Nc1nc(NC(=O)CCCCCCCCCCCCN2CCN(CCO)CC2)nc2nc[nH]c12 ?
**Result** 11.5%

---

Tested on: T cells isolated from mouse spleens
Assay: T cell proliferation inhibition (CFSE flow cytometry, anti-CD3/anti-CD28 stimulation)
Type: cell-based
Conditions: compound 10 μM, mouse spleen T cells, 3 days
Procedure: To verify the T cell proliferation inhibitory effect of the compounds according to the present invention, the following experiment was performed based on flow cytometry analysis using carboxyfluorescein diacetate succinimidyl ester (CFSE), a fluorescent dye that binds to intracellular molecules via covalent bonds. […] The proliferation inhibition rate (%) was calculated using the following formula: […]
Recorded Metric: Proliferation inhibition rate (%)
Respond numerically; units are % and should not be typed.

Take a look at these entries with their results.
# Compound, Target Or Test System, Observed Result
records = [
    ("Nc1ncccc1C(=O)NCCCCCCCCCCCCN1CCC(F)C1 (centres unmarked)", "T cells isolated from mouse spleens", 100.00),
    ("Cc1ccc(C2CCN(CCCCCCCCCCCCNC(=O)c3cccnc3N)CC2)cc1", "T cells isolated from mouse spleens", 100.00),
    ("CC(C)(C)OC(=O)N1CCN(CCCCCCCCCCCCNC(=O)c2cccnc2N)CC1", "T cells isolated from mouse spleens", 100.00),
    ("CN(CCCCCCCCCCCCNC(=O)c1cccnc1N)C(C)(C)C", "T cells isolated from mouse spleens", 100.00),
    ("Nc1ncccc1C(=O)NCCCCCCCCCCCCN1CC=CC1", "T cells isolated from mouse spleens", 100.00),
]

Now for another entry.
**Query** Recorded Proliferation inhibition rate (%) for Nc1ncccc1C(=O)NCCCCCCCCCCCCNC1CCOC1 (centres unmarked) , please?
**Result** 100.00

---

test system: Human B Lymphocyte cell line, SU-DHL-8; test: Relative cell viability CCK-8, SU-DHL-8; type: cell-based; settings: Homo sapiens, SU-DHL-8, 48 h, read-out: Relative cell viability (%), SU-DHL-8, 30 μM; 48 hours; untreated (DMSO) = 100%
Please use fulfilled for viability at 30 µM under 5% and not fulfilled for everything else, ties included.

# Smi, Target Or Test System, Group Label
records = [
    ("Cc1nnc(C)n1CCCCCCCCCCCCNC(=O)c1cccnc1N", "Human B Lymphocyte cell line, SU-DHL-8", "not fulfilled"),
    ("O=C(NCCCCCCCCCCCCF)c1cccnc1S", "Human B Lymphocyte cell line, SU-DHL-8", "not fulfilled"),
    ("Nc1ncccc1C(=O)NCCCCCCCCCCCCN1CCC(c2ccc([N+](=O)[O-])cc2)CC1", "Human B Lymphocyte cell line, SU-DHL-8", "fulfilled"),
]

Shift focus to the following entry.
**Query** Does Nc1ncccc1C(=O)NCCCCCCCCCCCCN1CCCCC1 have viability at 30 µM strictly under 5%?
**Result** fulfilled

---

Entries annotated with measured inhibition at 30 µM
tested on: T cells isolated from mouse spleens; assay: T cell proliferation inhibition (CFSE flow cytometry, anti-CD3/anti-CD28 stimulation); type: cell-based; conditions: Mus musculus, T-cell, 72 h, compound 30 μM, mouse spleen T cells, 3 days, read-out: Proliferation inhibition rate (%)
Give just the numeric value; % need not be written.

**Query** So what's the measured inhibition at 30 µM for this one? CN1CCN(C2CCN(CCCCCCCCCCCCNC(=O)c3cccnc3N)CC2)CC1 [Compound 124]
**Result** 100

**Query** Thanks! And Nc1ncccc1C(=O)NCCCCCCCCCCCCn1nnc2cccnc21 [Compound 88] ?
**Result** 100

**Query** Please give the result for Nc1ncccc1C(=O)NCCCCCCCCCCCCN1CCN(CC2CCCCC2)CC1 [Compound 113] too.
**Result** 100
